Entry source: patent US20260109776A1

Consider the following binders and their measured fold over control (gMFI) readings.
- target entity: T1, human TNFR2 (human, UniProt P20333 23-461)
- T1 construct: whole, on cells
- T1 sequence (looked up): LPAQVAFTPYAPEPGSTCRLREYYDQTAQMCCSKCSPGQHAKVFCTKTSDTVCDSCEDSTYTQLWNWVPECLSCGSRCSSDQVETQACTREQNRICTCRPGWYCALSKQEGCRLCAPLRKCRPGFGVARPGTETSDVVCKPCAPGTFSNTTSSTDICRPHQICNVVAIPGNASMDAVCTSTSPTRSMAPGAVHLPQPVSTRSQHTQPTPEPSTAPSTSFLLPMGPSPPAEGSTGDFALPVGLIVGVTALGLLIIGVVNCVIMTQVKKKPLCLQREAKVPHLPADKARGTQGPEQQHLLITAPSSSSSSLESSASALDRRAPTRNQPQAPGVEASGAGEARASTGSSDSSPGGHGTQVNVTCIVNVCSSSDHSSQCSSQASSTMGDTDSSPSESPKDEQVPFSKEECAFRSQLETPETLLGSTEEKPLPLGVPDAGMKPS
- assay overview: flow cytometry, HEK293 transfectants vs control cells
Respond numerically; units are fold and should not be typed.

Here is how some binders turned out for fold over control (gMFI).
>>> value_observed("37A6 (antibody, IgG4, V domains shown, also called 4865-1) VH: QVQLVESGGGLVKPGGSLRLSCAASEFTFSDYYMSWIRQAPGKGLEWVSYISRSGDTIYYADSVKGRFTISRDNAKNSLYLQMNGLRAEDTAVYYCARDLAAGATGGLDCWGQGTLVTVSS VL: SYELTQPPSVSVSPGQTASITCSGERLGNKYICWYQQKPGQSPVLVIYQDFKRPSGIPERFSGSNSGITATLTISGTQAMDEADYYCQAWDSRTVVFGGGTKLTVLG")
0.87
>>> value_observed("33H9 (antibody, IgG4, V domains shown, also called 4897-1) VH: QVQLVESGGGVVQPGRSLRLSCAASGFTFSSHGMHWVRQPPGKGLEWVAVIWYDGSNEYYGDSVKGRFTISRDNSKNTLYLQMNSLRVEDTAVYYCTRGGGHWNYEGHYYGMDVWGQGTTVTVSS VL: QAVPTQPSSLSASPGASASLTCTLRSGINVGSSRIYWYQQKPGSPPQFLLRYTSDSDKLQGSGVPSRFSGSKDASANAGLLLISGLQSEDEADYYCMIWHSSAVVFGGGTKLTVLG")
0.93

Consider the additional binder presented here.
Item: 33H6 (antibody, IgG4, V domains shown, also called 4883-1) VH: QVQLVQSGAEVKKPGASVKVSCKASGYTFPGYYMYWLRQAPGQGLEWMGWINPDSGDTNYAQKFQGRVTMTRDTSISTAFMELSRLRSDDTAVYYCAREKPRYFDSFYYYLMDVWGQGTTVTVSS VL: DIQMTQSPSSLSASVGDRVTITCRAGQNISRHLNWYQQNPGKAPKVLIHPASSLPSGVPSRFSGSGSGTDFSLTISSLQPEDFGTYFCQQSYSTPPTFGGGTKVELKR | fold over control (gMFI): 0.81
